Below is a list of entries, each paired with its recorded Potency value.
Test: Quantitative High-Throughput drug screen in 47 multiple myeloma cell lines against the NCATS MIPE library collection: JIM3_ECACC cell viability assay (AID 1918963; further: potency means the concentration at half of the fitted maximal effect; nearly all actives have a fitted effect of over 35% in size)
Conditions: JIM3 myeloma viability, CellTiter-Glo ATP, 48 h; series mostly up to 45.8 µM
Inconclusive results are not listed. Calls of active or inactive are those of the source. The call rests on the fitted dose curve; in most records, active means well fitted cell-killing curve with a large enough effect; inconclusive means small, poorly fitted or top-dose-only effect; inactive means no such curve, though single readings can be large or run the other way.

{"columns": ["molecule", "Potency"],
 "data": [
  ["CC(C)C[C@@H](C(=O)N[C@H](C(=O)OC1CCCC1)c1ccccc1)[C@H](O)C(=O)NO", "5.26 µM (active)"],
  ["CCc1cc(-c2n[nH]c(C)c2-c2ccc3c(c2)OCCO3)c(O)cc1O", "8.33 µM (active)"],
  ["CC1(C)C(N(O)C(=O)Nc2ccc(Cl)cc2)N(c2ccc(Cl)cc2)C(=O)N1CC(=O)NN=CC=Cc1ccc([N+](=O)[O-])o1 (centres undefined)", "14.8 µM (active)"]
]}

Numbers sourced from PubChem BioAssay (NCATS).
